Cited source for all entries: patent US6645983B1

Listing of recorded viability at 10 µM by entry.
System: T-47D
Assay: MTT test, cytotoxic activity on non-clonogenic cell lines
Assay type: cell-based
Conditions: Homo sapiens, T47D; 10^−5 M, 72 hours of incubation, control condition = 100%, mean value; read-out: mean optical density as percentage of control, T-47D
Field: numeric (%). Do not append units.

Look over these answered cases.
{"columns": ["Molecule", "Scale Unit", "Result"],
 "data": [
  ["CCN(CC)C(=O)Cn1cc(-c2ccc(OC)cc2)c(=O)c2c(OC)ccc(OC)c21 [CRL8380]", "%", 88.1],
  ["COc1ccc(-c2cn(CCCC#N)c3c(OC)ccc(OC)c3c2=O)cc1 [CRL8421]", "%", 83.5],
  ["COc1ccc(-c2cn(CCCC#N)c3cc(OC)cc(OC)c3c2=O)cc1 [CRL8420]", "%", 104],
  ["COc1ccc(-c2cn(CCCN(C)C)c3cc(OC)cc(OC)c3c2=O)cc1 [CRL8357]", "%", 94.1],
  ["COc1cc2[nH]cc(-c3ccccc3)c(=O)c2cc1OC [CRL8355]", "%", 98.5]
]}

-- ask Query the reported viability at 10 µM for T-47D; item: COc1ccc(-c2cn(C)c3cc(OC)cc(N4CCOCC4)c3c2=O)cc1 [CRL8435]
-- reply 95.7

-- ask Which viability at 10 µM is reported with T-47D for this entry: COc1ccc(-c2cn(CCN(C)C)c3cc(OC)cc(OC)c3c2=O)cc1 [CRL8350] ?
-- reply 87.1

-- ask I'm curious: which viability at 10 µM was measured for COc1ccc(OC)c2c(=O)c(-c3ccccc3)c[nH]c12 [CRL8353] tested on T-47D?
-- reply 87.2

-- ask Quick check: viability at 10 µM on T-47D, item COc1ccc(-c2cn(C)c3cc(OC)cc(O)c3c2=O)cc1 [CRL8377] ?
-- reply 66.9

-- ask Return viability at 10 µM measured with T-47D given this molecule: COc1ccc2c(c1)c(=O)c(-c1ccccc1)cn2C [CRL8379]
-- reply 99.3

====

Measurement Name: melting point

Completed entries (count: 8):
{"columns": ["Record Smiles", "melting point"],
 "data": [
  ["COc1ccc(-c2cn(CCCC#N)c3c(OC)ccc(OC)c3c2=O)cc1", "126 to 127 °C"],
  ["COc1ccc2[nH]cc(-c3ccccc3)c(=O)c2c1", "355 to 356 °C"],
  ["COc1ccc(-c2cn(CCc3nnn[nH]3)c3cc(OC)ccc3c2=O)cc1", "245 to 246 °C"],
  ["COc1ccc(CNc2cc(OC)cc3c2c(=O)c(-c2ccc(OC)cc2)cn3C)cc1", "144 to 145 °C"],
  ["COc1ccc(-c2cn(CCC#N)c3c(OC)ccc(OC)c3c2=O)cc1", "79 to 80 °C"],
  ["COc1ccc(-c2cn(C)c3cc(OC)cc(OS(=O)(=O)C(F)(F)F)c3c2=O)cc1", "184 to 185 °C"],
  ["C=Cc1cc(OC)cc2c1c(=O)c(-c1ccc(OC)cc1)cn2C", "130 to 131 °C"],
  ["COc1ccc(-c2cn(CCOS(=O)(=O)c3ccc(C)cc3)c3c(OC)ccc(OC)c3c2=O)cc1", "85 to 86 °C"]
]}

Now turn to the next compound.
-- ask So what's the measured melting point for this one? CCOC(=O)COc1c(-c2ccc(OC)cc2)cnc2cc(OC)cc(OC)c12
-- reply 238 to 239 °C
